tested on: TE10; assay: relative cell viability vs DMSO, compound alone (fraction); higher = less cytotoxic; conditions: 2 µM; 48 h
The full ranking holds about 2,000 compounds; the median of “relative cell viability vs DMSO, compound alone” is about 1.1, and the lowest 2% start at about 0.29. What follows is part of a selection rich in the lowest values, with near analogues and random picks from the rest.
Quick reference: relative cell viability of the listed items.
# answer = number (no unit)

[
  {
    "COMPOUND": "Cc1cnc(NC(=O)C2=C(O)c3ccccc3S(=O)(=O)N2C)s1",
    "MEASUREMENT_LABEL": "relative cell viability",
    "VAL": 1.11
  },
  {
    "COMPOUND": "COc1cc(Nc2ncc(F)c(Nc3ccc4c(n3)NC(=O)C(C)(C)O4)n2)cc(OC)c1OC [R406 (free base)]",
    "MEASUREMENT_LABEL": "relative cell viability",
    "VAL": 0.844
  },
  {
    "COMPOUND": "O=C(/C=C/c1ccc(CN(CCO)CCc2c[nH]c3ccccc23)cc1)NO",
    "MEASUREMENT_LABEL": "relative cell viability",
    "VAL": 0.0682
  },
  {
    "COMPOUND": "COc1cc(C(=O)NS(=O)(=O)c2ccccc2C)ccc1Cc1cn(C)c2ccc(NC(=O)OC3CCCC3)cc12",
    "MEASUREMENT_LABEL": "relative cell viability",
    "VAL": 1.03
  },
  {
    "COMPOUND": "CN1CCc2c(c3ccccc3n2Cc2ccc(C(=O)NO)cc2)C1",
    "MEASUREMENT_LABEL": "relative cell viability",
    "VAL": 1.14
  },
  {
    "COMPOUND": "CC[C@@H](C)Nc1cc(C(=O)N[C@H]2C[C@H]3CC[C@@H](C2)N3c2ccc(C(=O)C3CC3)cn2)c(C)cc1C(N)=O",
    "MEASUREMENT_LABEL": "relative cell viability",
    "VAL": 0.449
  }
]

Per the record, Cn1cc(CNCC2CCN(c3ncc(C(=O)NO)cn3)CC2)c2ccccc21 has relative cell viability of 0.078

Nc1nc(=O)n([C@@H]2CS[C@H](CO)O2)cc1F yielded relative cell viability of 1.06

----------
# relative cell viability values compiled below
test system: TE10; experiment: relative cell viability vs DMSO, compound alone (fraction); higher = less cytotoxic; conditions: 2 µM; 48 h
Over roughly 2,000 compounds, “relative cell viability vs DMSO, compound alone” has its median near 1.1; the lowest 2% begin near 0.29. What follows is part of a selection rich in the lowest values, with near analogues and random picks from the rest.

Would you please look over these solved cases?
[
  {
    "COMPOUND": "COc1ccc(C[C@H](NC(=O)[C@H](C)NC(=O)CN2CCOCC2)C(=O)N[C@@H](Cc2ccccc2)C(=O)[C@@]2(C)CO2)cc1",
    "relative cell viability": 0.0804
  },
  {
    "COMPOUND": "CCCCOc1c(C(=O)c2c(F)cc(C)cc2F)c[nH]c2nncc1-2",
    "relative cell viability": 0.904
  },
  {
    "COMPOUND": "O=C(Cc1ccc(-c2ccc(OCCN3CCOCC3)cc2)cn1)NCc1ccccc1",
    "relative cell viability": 0.816
  },
  {
    "COMPOUND": "COC(=O)[C@H](Cc1ccccc1)NC(=O)[C@@H](N)CC(=O)O [Aspartame]",
    "relative cell viability": 1.06
  },
  {
    "COMPOUND": "Cc1ccc(S(=O)(=O)c2ccc([N+](=O)[O-])o2)cc1",
    "relative cell viability": 0.286
  },
  {
    "COMPOUND": "C[C@@]12C[C@@]3(O)O[C@@H](O1)[C@]1(COC(=O)c4ccccc4)[C@H]3C[C@@]12O[C@@H]1O[C@H](CO)[C@@H](O)[C@H](O)[C@H]1O [Paeoniflorin]",
    "relative cell viability": 1.04
  },
  {
    "COMPOUND": "C[C@@H](Oc1ccc2[nH]nc(/C=C/c3cnn(CCO)c3)c2c1)c1c(Cl)cncc1Cl",
    "relative cell viability": 0.712
  }
]

Pending compound:
Per the record, CC(C)CC(CC(=O)NO)C(=O)N[C@@H](Cc1ccc2ccccc2c1)C(=O)N[C@@H](C)C(=O)NCCN (stereo partly drawn) has relative cell viability of 1.04

----------
tested on: TE10; experiment: relative cell viability vs DMSO, compound alone (fraction); higher = less cytotoxic; details: 2 µM; 48 h
The full ranking holds about 2,000 compounds; the median of “relative cell viability vs DMSO, compound alone” is about 1.1, and the lowest 2% start at about 0.29. The sample holds the lowest values, similar compounds and a random draw of the others, so the mix is not that of the screen.
Kindly apply the following: t if relative cell viability is less than 1, f in every other case.

[
  {
    "COMPOUND": "CC(C)(C)c1cc(NC(=O)Nc2ccc(-c3cn4c(n3)sc3cc(OCCN5CCOCC5)ccc34)cc2)no1 [Quizartinib (AC220)]",
    "CAT": "t"
  },
  {
    "COMPOUND": "O=C(CCCN1CC=C(n2c(=O)[nH]c3ccccc32)CC1)c1ccc(F)cc1 [Droperidol]",
    "CAT": "f"
  },
  {
    "COMPOUND": "O=C(O)c1ccccc1 [Benzoic Acid]",
    "CAT": "f"
  },
  {
    "COMPOUND": "COc1cc(-c2cc(-c3ccc(N4CCNCC4)cc3)cnc2C)cc(OC)c1OC",
    "CAT": "f"
  },
  {
    "COMPOUND": "CN(C)c1ccc(C(=O)NCCCCCCC(=O)NO)cc1",
    "CAT": "t"
  },
  {
    "COMPOUND": "CC(C)(O)CC(=O)NCCn1ccc2ncnc(Nc3ccc(Oc4cccc(C(F)(F)F)c4)c(Cl)c3)c21",
    "CAT": "f"
  },
  {
    "COMPOUND": "O=C(O)c1cc(/N=N/c2ccc(O)c(C(=O)O)c2)ccc1O [Olsalazine Sodium]",
    "CAT": "f"
  }
]

Switching to the query record.
Task: Does this compound meet the criterion relative cell viability < 1? C[N+](C)(C)C[C@H](O)CC(=O)[O-] [L-carnitine]
Result: f

----------
tested on: TE10; assay: relative cell viability vs DMSO, compound alone (fraction); higher = less cytotoxic; details: 2 µM; 48 h
Counter-ions that a name gives are not always drawn. In all, about 2,000 compounds were measured (“relative cell viability vs DMSO, compound alone”: median about 1.1, lowest 2% from about 0.29 on). The list comes from a sample in which the lowest values are over-represented; it also holds close analogues and randomly drawn compounds.
So basically, if relative cell viability comes in under 1 it's Condition met, and if it's 1 or more it's Condition not met.

Below, 5 compounds whose answers are already recorded.
[
  {
    "COMPOUND": "Nc1nc(F)nc2c1ncn2[C@@H]1O[C@H](COP(=O)(O)O)[C@@H](O)[C@@H]1O [Fludarabine Phosphate]",
    "CAT": "Condition met"
  },
  {
    "COMPOUND": "CN1CCc2nc(C(=O)N[C@@H]3C[C@@H](C(=O)N(C)C)CC[C@@H]3NC(=O)C(=O)Nc3ccc(Cl)cn3)sc2C1",
    "CAT": "Condition not met"
  },
  {
    "COMPOUND": "CCN(CC)CCOC(=O)c1ccc(N)cc1Cl [Chloroprocaine HCl]",
    "CAT": "Condition not met"
  },
  {
    "COMPOUND": "CCN(CC)CCCCNc1ncc2cc(-c3cc(OC)cc(OC)c3)c(NC(=O)NC(C)(C)C)nc2n1",
    "CAT": "Condition not met"
  },
  {
    "COMPOUND": "O=C(/C=C\\n1cnc(-c2cc(C(F)(F)F)cc(C(F)(F)F)c2)n1)NNc1ccccn1 [Verdinexor (KPT-335)]",
    "CAT": "Condition met"
  }
]

Task: Does COc1cc(-c2cc(-c3cccc(O)c3)cnc2N)cc(OC)c1OC have relative cell viability strictly under 1?
Result: Condition not met

Task: Consider the compound CCC(=O)Nc1cccc(Oc2nc(Nc3ccc(N4CCN(C)CC4)cc3OC)ncc2Cl)c1 . Is its relative cell viability strictly less than 1?
Result: Condition not met

----------
test system: TE10; experiment: relative cell viability vs DMSO, compound alone (fraction); TE10 is an esophageal squamous carcinoma line; higher = less cytotoxic; details: 2 µM; 48 h
Counter-ions that a name gives are not always drawn. Over roughly 2,000 compounds, “relative cell viability vs DMSO, compound alone” has its median near 1.1; the lowest 2% begin near 0.29. Only a selection was taken, and the lowest values are over-represented in it overall.
List of relative cell viability values.
Could you keep your reply to the number by itself?

[
  {
    "MOLECULE": "CCc1c(O)cc(O)c(C(=O)c2ccc(OCCN3CCOCC3)c(OC)c2)c1CC(=O)N(CCOC)CCOC",
    "SYSTEM_TESTED": "TE10",
    "relative cell viability": 0.546
  }
]

Reported relative cell viability (TE10) for entry OCCOCCN1CCN(C2=Nc3ccccc3Sc3ccccc32)CC1 [Quetiapine Fumarate] is 1.08

TE10 relative cell viability of N#C[C@@H]1C[C@@H]2C[C@@H]2N1C(=O)[C@@H](N)C12CC3CC(CC(O)(C3)C1)C2 is 1.02

Entry COc1cc(Nc2ncc(F)c(Nc3ccc4c(n3)NC(=O)C(C)(C)O4)n2)cc(OC)c1OC under TE10 had relative cell viability of 0.96

Entry COc1ccc(-n2nc(C(N)=O)c3c2C(=O)N(c2ccc(N4CCCCC4=O)cc2)CC3)cc1 , TE10 data, relative cell viability value: 1.1

For Nc1c(CC(=O)O)cccc1C(=O)c1ccc(Br)cc1 [Bromfenac Sodium] on TE10, measured relative cell viability was 1.09

Value (relative cell viability, TE10) for record C[C@H](CCC(=O)O)[C@H]1CC[C@H]2[C@@H]3[C@@H](O)C[C@@H]4C[C@H](O)CC[C@]4(C)[C@H]3CC[C@]12C = 0.96

Entry CNC[C@H](O)[C@@H](O)[C@H](O)[C@H](O)CO ; assay system TE10; relative cell viability recorded at 1.01

Summary: O=C1c2ccccc2-c2n[nH]c3cccc1c23 , TE10, relative cell viability = 1.27

// returns relative cell viability for Nc1nc2c(ncn2COC(CO)CO)c(=O)[nH]1 with TE10; value = 1.07
